Target: estrogen receptor alpha (ESR1) (Homo sapiens)
Construct: MCF7 cells were trypsinized and washed twice; endogenous in cells; host or cells: MCF7 breast cancer cells
Sequence (P03372 1-595): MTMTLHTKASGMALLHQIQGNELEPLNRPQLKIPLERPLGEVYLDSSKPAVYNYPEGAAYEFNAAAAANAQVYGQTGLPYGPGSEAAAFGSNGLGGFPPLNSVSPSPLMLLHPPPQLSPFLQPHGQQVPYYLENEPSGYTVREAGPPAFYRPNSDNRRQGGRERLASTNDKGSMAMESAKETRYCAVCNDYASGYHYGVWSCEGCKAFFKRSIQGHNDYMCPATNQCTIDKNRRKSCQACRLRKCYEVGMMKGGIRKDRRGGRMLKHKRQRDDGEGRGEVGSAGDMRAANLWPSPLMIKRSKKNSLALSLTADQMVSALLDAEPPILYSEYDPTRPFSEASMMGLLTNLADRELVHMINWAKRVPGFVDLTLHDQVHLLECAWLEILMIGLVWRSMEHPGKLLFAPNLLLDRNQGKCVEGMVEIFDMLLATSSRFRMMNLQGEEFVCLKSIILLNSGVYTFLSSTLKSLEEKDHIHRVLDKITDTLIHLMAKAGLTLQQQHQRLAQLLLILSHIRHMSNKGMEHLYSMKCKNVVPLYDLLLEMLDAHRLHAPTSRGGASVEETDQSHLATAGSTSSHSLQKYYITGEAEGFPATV
Assay: Breast Cancer Cell ERa High Content Fluorescence Imaging Assay (ER-alpha MCF7 Assay)
Type: cell-based
Conditions: MCF7 cells, 4 hours; plateau of maximal effect; DMSO = 0%, 5 nM Fulvestrant = 100% change in ESR1
TEST_READOUT: ER-alpha MCF7 Sinf (%)

COMPOUND	UNIT_DESCRIPTOR	READING
CC1=C(C2=CCC(O)CC2)C(c2ccc(OCCN3CC(CF)C3)cc2)Oc2ccc(O)cc21 (stereo not shown)	%	98.7
CC1=C(C2=CC(=O)CC2)C(c2ccc(OCCN3CC(CF)C3)cc2)Oc2ccc(O)cc21 (stereo not shown)	%	96.6
CC(=O)N1CCC(C2=C(C)c3cc(O)ccc3OC2c2ccc(OCCN3CC(CF)C3)cc2)C1 (stereo not shown)	%	80
CC1=C(c2ccncc2C)C(c2ccc(OCCN3CC(CF)C3)cc2)Oc2ccc(O)cc21 (stereo not shown)	%	99.4

All values here come from patent US10053451B2.
